test system: NCI-H522; assay: NCI tumour cell line growth inhibition, 48 h
Calls of active or inactive are those of the source. Cut-off read from the data, not from the text of the source: active = GI50 up to about 1.1 µM and inactive = higher.
Quick list: GI50 per entry.

A selection of reference data follows.
[
  {
    "molecule": "Cc1cc(Cl)ccc1NC(=O)C1C(=O)N(c2ccc(Cl)cc2C)C(=O)/C1=N\\NC(N)=S (stereo unspecified)",
    "GI50": "17.1 µM (inactive)"
  },
  {
    "molecule": "Cn1cnc([N+](=O)[O-])c1Sc1nnc(C(F)(F)F)n1C",
    "GI50": "10.4 µM (inactive)"
  },
  {
    "molecule": "Cc1cc2cc3c(C)cc(=O)oc3c(C)c2o1",
    "GI50": "> 100 µM (inactive)"
  },
  {
    "molecule": "CN(C)P(=O)(/C(N)=N/Nc1ccc([N+](=O)[O-])cc1)N(C)C",
    "GI50": "48 µM (inactive)"
  },
  {
    "molecule": "O=C1C=Cc2c(Br)sc(Br)c21",
    "GI50": "26.1 µM (inactive)"
  },
  {
    "molecule": "O=c1[nH]nc(Cc2ccc(Cl)cc2)n1/N=C/c1ccc([N+](=O)[O-])o1",
    "GI50": "1 µM (active)"
  },
  {
    "molecule": "COc1ccc2nc3cccc([N+](=O)[O-])c3c(NCCC(=O)O)c2c1",
    "GI50": "4.56 µM (inactive)"
  },
  {
    "molecule": "COc1cc2c(cc1OCc1ccccc1)CNCC2",
    "GI50": "> 100 µM (inactive)"
  },
  {
    "molecule": "COc1cc(CNCc2cc(OC)c(OC)c(OC)c2)cc(OC)c1OC",
    "GI50": "> 4.88 µM (inactive)"
  },
  {
    "molecule": "N=C1NC2(O)C(=O)c3ccccc3C2(O)N1 (stereo unspecified)",
    "GI50": "> 100 µM (inactive)"
  }
]

Lookup: GI50 / NCI-H522 / COc1nc2c(c(O)c(C)c(=O)n2OC2OC(COC(C)=O)C(OC(C)=O)C(OC(C)=O)C2OC(C)=O)c(=O)n1C (stereo unspecified)
44.8 µM (inactive)

Lookup: GI50 / NCI-H522 / Cc1ccc(OCCn2cc(Nc3ccccc3)c(=O)n(CCOc3ccc(C)cc3)c2=O)cc1
97.7 µM (inactive)

Lookup: GI50 / NCI-H522 / O=C(N/N=C/c1ccccc1)c1c(F)c(F)c(F)c(F)c1F
23.3 µM (inactive)

Lookup: GI50 / NCI-H522 / O=C1CSC(c2c[nH]c3ccccc23)N1c1ccc(Cl)cc1Cl (stereo unspecified)
> 100 µM (inactive)

Lookup: GI50 / NCI-H522 / COc1ccc(C(=CCC(C)C2CCC3[C@@H]4C(OC(C)=O)CC5CC(OC(C)=O)CC[C@]5(C)C4CC(OC(C)=O)[C@]23C)c2ccc(OC)cc2)cc1 (stereo partly specified)
23.8 µM (inactive)

Lookup: GI50 / NCI-H522 / CC(C)=CC1(C)/C(=N\O)C(C)(CC(C)C)C(=O)N1O (stereo unspecified)
> 100 µM (inactive)

Lookup: GI50 / NCI-H522 / O=c1[nH]c(Br)nc2[nH]nnc12
> 100 µM (inactive)

Lookup: GI50 / NCI-H522 / N#CC1(C#N)C(C#N)(C#N)C1(C#N)C(N)=O
> 100 µM (inactive)

Lookup: GI50 / NCI-H522 / CCCNC(=O)N(C)C(=O)N1N=C(c2ccccc2)C1c1ccccc1 (stereo unspecified)
62.4 µM (inactive)

Lookup: GI50 / NCI-H522 / C[C@H](CCC(=O)O)[C@H]1CC[C@H]2[C@@H]3[C@@H](O)C[C@@H]4C[C@H](O)CC[C@]4(C)[C@H]3CC[C@]12C
> 100 µM (inactive)

Lookup: GI50 / NCI-H522 / COc1cc(/C=N/N=C(\N)NO)ccc1O
46.3 µM (inactive)

Lookup: GI50 / NCI-H522 / C/C(=N\NS(=O)(=O)c1ccc(C)cc1)c1cc2ccccc2n1C
> 100 µM (inactive)
